// provenance: ChEMBL document CHEMBL1136647

Experiment: Inhibitory concentration against phosphodiesterase from bovine heart
pIC50: −log10 of the molar value.
Measurement label: pIC50

Molecule	Measurement label	Recorded number
CC(C)Cn1c(=O)n(C)c(=O)c2nc[nH]c21 [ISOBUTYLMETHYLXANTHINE]	pIC50	4.44
